assayDetails: Chemical stability of the compound in 0.01 M PBS buffer at pH 7.4 after 5 hrs by RP-HPLC analysis
Type: physicochemical
conditionSummary: read-out: Stability

>  <molecule>
C=C(COC(=O)c1c(C(F)(F)F)cccc1C(F)(F)F)C(=O)N[C@@H](CC(C)C)C(=O)NCC(=O)OCC

>  <units>
%

>  <remaining at 5 h>
20

$$$$

====

Entries annotated with measured CC50
Tested on: EMT6
assayDetails: Cytotoxicity against mouse EMT6 cells after 72 hrs by crystal violet staining
Type: functional
conditionSummary: EMT6, 72 h, read-out: LD50 (the source's name)

>  <compound>
C=C(CBr)C(=O)OC [METHYL BROMOMETHYL ACRYLATE]

>  <CC50>
> 50 µM

$$$$
>  <compound>
C=C(COC(=O)c1c(C(F)(F)F)cccc1C(F)(F)F)C(=O)N[C@@H](CC(C)C)C(=O)NCC(=O)OCC

>  <CC50>
5.2 µM

$$$$
>  <compound>
C=C(COC(=O)c1c(Cl)cccc1Cl)C(=O)OC

>  <CC50>
> 25 µM

$$$$
>  <compound>
C=C(CBr)C(=O)N(Cc1ccc(OC)cc1OC)[C@@H](CC(C)C)C(=O)NCC(=O)OCC

>  <CC50>
> 50 µM

$$$$
>  <compound>
CCC(C)SSc1ncc[nH]1 (centres undefined)

>  <CC50>
11.6 µM

$$$$
>  <compound>
C=C(CBr)C(=O)N(Cc1ccccc1)[C@@H](CC(C)C)C(=O)NCC(=O)OCc1ccccc1

>  <CC50>
> 50 µM

$$$$
>  <compound>
C=C(COS(=O)(=O)c1ccc(C)cc1)C(=O)N(Cc1ccccc1)[C@@H](CC(C)C)C(=O)NCC(=O)OCc1ccccc1

>  <CC50>
> 50 µM

$$$$
>  <compound>
C=C(CBr)C(=O)N[C@@H](CC(C)C)C(=O)NCC(=O)OCC

>  <CC50>
> 25 µM

$$$$
>  <compound>
C=C(COC(=O)c1c(Cl)cccc1Cl)C(=O)N[C@@H](CC(C)C)C(=O)NCC(=O)OCC

>  <CC50>
5.5 µM

$$$$
